Taken from ChEMBL document CHEMBL1201862.

Test system: NCI-H23
Experiment: NCI tumour cell line growth inhibition, 48 h
Activity calls are given as the source filed them. Rule as the data show it: active = GI50 up to about 1.1 µM and inactive = higher.
measurement name: GI50

CCCC(=O)OC(OC(=O)CCC)c1ccc([N+](=O)[O-])o1 | 22.1 µM (inactive)
Cc1csc(-n2nc(C)cc2C)n1 | > 100 µM (inactive)
CC1=C(C(=O)OCCc2ccc([N+](=O)[O-])cc2)C(c2ccccc2[N+](=O)[O-])C(C(=O)OC(C)C)=C(C)N1 (stereo unspecified) | 3.97 µM (inactive)
COc1ccc2cc(NC(=O)N/N=C\c3ccc(Cl)cc3)ccc2c1 | > 100 µM (inactive)
CN(/N=C(\C(=O)O)c1ccccc1)C1=NCCN1 | > 100 µM (inactive)
O=C(O)CCc1nc2c(n1-c1ccccc1)C(=O)c1ccccc1C2=O | > 100 µM (inactive)
CCOC(=O)c1ccc(/N=C2\S/C(=C\C(=S)Nc3ccccc3)N(c3ccccc3)\C2=N/c2ccc(C(=O)OCC)cc2)cc1 | > 100 µM (inactive)
Nc1ccc(C(=O)N/C(=C\C=C\c2ccco2)c2nc3c4c(ccc3[nH]2)C(=O)c2ccccc2C4=O)cc1 | 41.5 µM (inactive)
NC(=O)N/N=C\CC(O)(C(F)(F)Cl)C(F)(F)Cl | > 10 µM (inactive)
O=C(O)[C@H]1NC[C@@H]2ON=C(Br)[C@@H]21 | > 100 µM (inactive)
Cc1ccccc1Nc1nc2ccccc2nc1NS(=O)(=O)c1ccccc1 | 43.1 µM (inactive)
Cc1ccc(/C=N/Nc2cc(C)c3ccccc3n2)s1 | 17.5 µM (inactive)
COc1ccc(-c2c3ccccc3c(-c3ccc(OCCBr)cc3)c3ccccc23)cc1 | > 100 µM (inactive)
COC(=O)NC(=O)c1cn(C2OC(CO)C(O)C2O)c(=O)[nH]c1=O (stereo unspecified) | > 100 µM (inactive)
O/N=C1\CCc2nonc2\C1=N/Nc1ccccc1 | > 100 µM (inactive)
O=C1C2=Cc3ccccc3CCN2c2ccccc21 | > 59.6 µM (inactive)
O=C1CC(C(CC(=O)c2ccccc2)c2ccccc2)C(=O)c2ccccc2N1 (stereo unspecified) | > 100 µM (inactive)
O=c1c(-c2ccccc2)c(SCCN2CCCCCC2)n(-c2ccccc2)c(=S)n1-c1ccccc1 | 68.9 µM (inactive)
O=[N+]([O-])C(/C=C(\Cl)[N+](=O)[O-])=C(Nc1ccccc1)Nc1ccccc1 | 7.96 µM (inactive)
Cc1ccc(N(C(=O)Nc2ccc(F)c(Cl)c2)C2=NCC(C)S2)cc1 (stereo unspecified) | 28.6 µM (inactive)
CCCCCCCCCCCCc1ccsc1-c1ccc(-c2ccc(-c3sccc3CCCCCCCCCCCC)s2)s1 | > 100 µM (inactive)
